Just for reference, ChEMBL document CHEMBL1157210 is where these values come from.

- experiment-description: Displacement of […] from GABAA receptor in rat brain
- Format: tissue-based
measured-metric: IC50 (nM)
Numbers only, in nM.

Lab note: each compound below needs its IC50 filled in.
1. CC(=O)[C@@H]1CC[C@H]2[C@@H]3CC[C@H]4C[C@@H](O)CC[C@@]4(C)[C@H]3CC[C@@]12C
2. C[C@]12CC[C@@H](O)C[C@H]1CC[C@@H]1[C@@H]2CC[C@]2(C)C(=O)CC[C@@H]12 [ETIOCHOLANOLONE]
3. CC(=O)[C@H]1CC[C@H]2[C@@H]3CC[C@@H]4C[C@H](O)CC[C@]4(C)[C@H]3CC[C@]12C [ELTANOLONE]

[A]
280
4150
71
